# assay system: T1, TLR4/MD-2 complex (Mus musculus, UniProt Q9QUK6)
# T1 chain 1: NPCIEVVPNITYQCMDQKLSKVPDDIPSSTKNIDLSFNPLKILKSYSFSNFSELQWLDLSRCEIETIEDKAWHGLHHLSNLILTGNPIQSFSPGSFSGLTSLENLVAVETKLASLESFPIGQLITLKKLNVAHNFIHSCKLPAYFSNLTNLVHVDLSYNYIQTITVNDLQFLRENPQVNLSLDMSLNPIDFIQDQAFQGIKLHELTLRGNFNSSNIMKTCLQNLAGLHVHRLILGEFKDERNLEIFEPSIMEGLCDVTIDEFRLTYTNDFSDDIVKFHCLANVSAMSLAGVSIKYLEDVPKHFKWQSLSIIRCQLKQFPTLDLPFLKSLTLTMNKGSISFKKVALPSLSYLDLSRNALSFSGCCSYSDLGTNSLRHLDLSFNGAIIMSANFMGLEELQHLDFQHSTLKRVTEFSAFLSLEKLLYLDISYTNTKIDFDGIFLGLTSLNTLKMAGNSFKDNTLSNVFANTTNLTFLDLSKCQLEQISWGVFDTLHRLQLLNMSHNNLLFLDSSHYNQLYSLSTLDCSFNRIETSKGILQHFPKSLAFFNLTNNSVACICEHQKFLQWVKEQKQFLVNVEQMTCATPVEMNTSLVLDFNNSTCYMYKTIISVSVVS
# T1 chain 2: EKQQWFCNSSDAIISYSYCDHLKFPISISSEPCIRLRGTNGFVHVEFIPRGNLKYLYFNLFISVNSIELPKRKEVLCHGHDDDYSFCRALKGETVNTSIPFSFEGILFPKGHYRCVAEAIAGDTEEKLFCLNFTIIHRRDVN
# method: SPR
Ends that are not written are not given here.
test readout: pKd
Keep it numeric: pKd is minus log10 of the concentration in mol/L.

| binder | test readout | measured result |
| --- | --- | --- |
| RWGRFLRKIRRFRRKDVT [CTP (CATH2(1-13)-TP5 hybrid peptide)] | pKd | 5.85 |

Would you kindly look at the next entry?
Prompt: State its pKd: RWGRFLRKIRRFRRKDVT-NH2 [CTP-NH2 (CATH2(1-13)-TP5 hybrid peptide, C-terminal amide)]
Response: 6.02
